For each of the variants below, state its abundance fitness.
B1: Homeobox expressed in ES cells 1, residues 110 to 165; numbered along this chain, Q9UBX0 (parent)
chain: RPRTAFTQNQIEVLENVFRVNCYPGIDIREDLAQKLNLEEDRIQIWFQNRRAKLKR

# Variants of: B1
# experiment: abundance fitness (aPCA) (normalised: wild type 0, dead -1); higher = more abundant; growth selection in yeast, the domain comes from the species named
# applied_conditions: Homo sapiens
# respond with the number and nothing more

May I ask what abundance fitness has been recorded for N21W ? -0.608

How about D27A ? -0.259

How about this variant: R19H -0.46

Do the same for V20C please -0.218

Thanks! And V17H ? -0.427

// next record D27E 0.075

And the next one, R29W ? -0.18

And what about the variant I26D ? -0.297

Field entry: I28R -0.667

// same read-out, input: A5P 0.295

For I11Q then? -0.114

Try the variant L32K -0.833

Then what about the variant R29P ? -0.708

Same lookup for F18T , please. -0.82

// repeat for V13L and report -0.543

Could you do the same for R1G , please? -0.505

Next record, please: N9T -0.132

Cool, now P24Y -0.366

Now give it for Q8Y too. -0.264

Same thing, different variant: E15S -0.854

Now the variant D31C -0.468

What would you report for R29F ? -0.198
